Tested on: F9 teratocarcinoma stem cells
experiment.summary: CAT reporter transfection into RA responsive F9 teratocarcinoma stem cells
Format: cell-based, mouse
setup.conditions: RA 1 μM, 24 hours; no transfected receptor
readout.kind: function as RARE in F9 cells

Here are 4 substances together with their reported answers.
MHC-N: 23-nucleotide core of the wild-type sequence (MHC-TRE) (SEQ ID NO:14) (AGCTGGAGGTGACAGGAGGACAGCAAGCT; DNA, backbone not given here; further chemistry not fully specified) | inert
MHC+1: MHC-N with half-site spacing increased by one nucleotide (SEQ ID NO:22) (AGCTGGAGGTGAACAGGAGGACAGCAAGCT; DNA, backbone not given here; double-stranded response element with agct overhangs, cloned into reporter plasmid) | inert
MHC-T: MHC-N with the AGGACA half-site corrected to AGGTCA (SEQ ID NO:23) (AGCTGGAGGTGACAGGAGGTCAGCAAGCT; DNA, backbone not given here; double-stranded response element with agct overhangs, cloned into reporter plasmid) | inert
MHC-R: MHC-T with half-site spacing increased by one nucleotide (SEQ ID NO:24) (AGCTGGAGGTGAACAGGAGGTCAGCAAGCT; DNA, backbone not given here; double-stranded response element with agct overhangs, cloned into reporter plasmid) | potent RAREs

Turning now to a further substance:
Input: Write down the reported function as RARE in F9 cells of TREp: optimized palindromic rat growth hormone TRE (SEQ ID NO:10) (AGCTTCAGGTCATGACCTGAGAGCT; DNA, backbone not given here; double-stranded response element with agct overhangs, cloned into reporter plasmid) [reference compound] , test system: F9 teratocarcinoma stem cells.
Output: potent RAREs

* * *

tested.on: TRβ (Homo sapiens)
experiment.summary: Gel retardation DNA-binding assay with TRβ-expressing COS cell extracts
Design: expressed in transfected cells; host or cells: COS cells (whole-cell extract)
setup.conditions: unlabeled competitor oligonucleotide; COS cells expressing TRβ
Method: For DNA binding assays, COS cells were cultured in DMEM with 10% calf bovine serum and transfected by the calcium phosphate method with 20 μg of the pCMX receptor expression plasmid for 6 hours followed by a glycerol shock. After incubating the transfected COS cells for another 48 hours, the cells were harvested to prepare extracts for the DNA binding assay, carried out as described by Damm et al., Nature 339: 593-597 (1989). […]
readout.kind: competition for TRβ binding (mobility shift assay)

MHC-R: MHC-T with half-site spacing increased by one nucleotide (SEQ ID NO:24) (AGCTGGAGGTGAACAGGAGGTCAGCAAGCT; DNA, backbone not given here; double-stranded response element with agct overhangs, cloned into reporter plasmid) | poor competitors
MHC+1: MHC-N with half-site spacing increased by one nucleotide (SEQ ID NO:22) (AGCTGGAGGTGAACAGGAGGACAGCAAGCT; DNA, backbone not given here; double-stranded response element with agct overhangs, cloned into reporter plasmid) | poor competitors

* * *

tested.on: TRβ (Homo sapiens, UniProt P10828)
experiment.summary: Gel retardation DNA-binding assay with TRβ-expressing COS cell extracts
Set-up: expressed in transfected cells; host or cells: COS cells (whole-cell extract)
setup.conditions: unlabeled competitor oligonucleotide; COS cells expressing TRβ
Method: For DNA binding assays, COS cells were cultured in DMEM with 10% calf bovine serum and transfected by the calcium phosphate method with 20 μg of the pCMX receptor expression plasmid for 6 hours followed by a glycerol shock. After incubating the transfected COS cells for another 48 hours, the cells were harvested to prepare extracts for the DNA binding assay, carried out as described by Damm et al., Nature 339: 593-597 (1989). […]
readout.kind: competition for TRβ binding (mobility shift assay)

TREp: optimized palindromic rat growth hormone TRE (SEQ ID NO:10) (AGCTTCAGGTCATGACCTGAGAGCT; DNA, backbone not given here; double-stranded response element with agct overhangs, cloned into reporter plasmid) [reference compound] | efficient competition
MHC-T: MHC-N with the AGGACA half-site corrected to AGGTCA (SEQ ID NO:23) (AGCTGGAGGTGACAGGAGGTCAGCAAGCT; DNA, backbone not given here; double-stranded response element with agct overhangs, cloned into reporter plasmid) | efficient competition

* * *

tested.on: TRβ (Homo sapiens)
Sequence (P10828 1-461): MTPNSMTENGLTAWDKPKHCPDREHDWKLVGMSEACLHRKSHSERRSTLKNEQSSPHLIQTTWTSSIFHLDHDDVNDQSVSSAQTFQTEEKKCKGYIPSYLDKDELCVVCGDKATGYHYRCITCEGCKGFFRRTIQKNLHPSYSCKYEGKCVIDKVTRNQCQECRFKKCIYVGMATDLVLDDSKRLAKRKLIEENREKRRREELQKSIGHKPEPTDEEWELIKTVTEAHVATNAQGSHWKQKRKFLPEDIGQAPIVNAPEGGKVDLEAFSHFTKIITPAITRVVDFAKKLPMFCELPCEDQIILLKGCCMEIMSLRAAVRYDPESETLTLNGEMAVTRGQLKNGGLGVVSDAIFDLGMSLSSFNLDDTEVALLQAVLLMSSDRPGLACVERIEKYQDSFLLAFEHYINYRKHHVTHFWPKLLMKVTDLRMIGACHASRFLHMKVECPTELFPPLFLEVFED
experiment.summary: Gel retardation DNA-binding assay with TRβ-expressing COS cell extracts
Design: expressed in transfected cells; host or cells: COS cells (whole-cell extract)
setup.conditions: 50-fold excess of unlabeled oligonucleotide; COS cell extracts
readout.kind: competition for TRβ binding to 32P-labeled MHC-N

M2: MHC-N mutant with nucleotide substitutions in the presumed palindrome (SEQ ID NO:16) (AGCTGGAGGTGACGAAAGGACAGCAAGCT; DNA, backbone not given here; double-stranded DNA response element with agct overhangs, cloned into reporter) | competed
MHC-N: 23-nucleotide core of the wild-type sequence (MHC-TRE) (SEQ ID NO:14) (AGCTGGAGGTGACAGGAGGACAGCAAGCT; DNA, backbone not given here; further chemistry not fully specified) | competed
M3: MHC-N with nucleotide substitutions in the proposed direct repeat motif (SEQ ID NO:17) (AGCTGGAGGTGACAGGAAAACAGCAAGCT; DNA, backbone not given here; double-stranded DNA response element with agct overhangs, cloned into reporter) | did not
M1: MHC-N with nucleotide substitutions in the proposed direct repeat motif (SEQ ID NO:15) (AGCTGGAAATGACAGGAGGACAGCAAGCT; DNA, backbone not given here; double-stranded DNA response element with agct overhangs, cloned into reporter) | did not

* * *

tested.on: TRβ (Homo sapiens, UniProt P10828)
experiment.summary: ΔSV-CAT reporter cotransfection assay in CV-1 cells with TRβ expression plasmid, ±T3
Format: cell-based
Design: expressed in transfected cells; host or cells: CV-1 (monkey kidney)
setup.conditions: TRβ expression vector
readout.kind: T3 responsiveness (in words)

M3: MHC-N with nucleotide substitutions in the proposed direct repeat motif (SEQ ID NO:17) (AGCTGGAGGTGACAGGAAAACAGCAAGCT; DNA, backbone not given here; double-stranded DNA response element with agct overhangs, cloned into reporter) | completely silent to T3
TREp: optimized palindromic rat growth hormone TRE (SEQ ID NO:10) (AGCTTCAGGTCATGACCTGAGAGCT; DNA, backbone not given here; double-stranded response element with agct overhangs, cloned into reporter plasmid) [reference compound] | responsive to T3
GDR-3: identical to DR-3 except half-site changed to AGAACA, a GRE half-site (SEQ ID NO:26) (AGCTTCAGAACAAGGAGAACAGAGAGCT; DNA, backbone not given here; double-stranded DNA response element with agct overhangs, cloned into reporter) | completely inactive
M1: MHC-N with nucleotide substitutions in the proposed direct repeat motif (SEQ ID NO:15) (AGCTGGAAATGACAGGAGGACAGCAAGCT; DNA, backbone not given here; double-stranded DNA response element with agct overhangs, cloned into reporter) | completely silent to T3
MHC-L: wild-type MHC sequence encoding a TRE in the MHC gene promoter (SEQ ID NO:11) (AGCTCCTTGGCTCTGGAGGTGACAGGAGGACAGCAGCT; DNA, backbone not given here; double-stranded response element with agct overhangs, cloned into reporter plasmid) | responsive to T3

Turning now to a further substance:
Input: If you can, please state the reported T3 responsiveness (in words) value of GDR-4: identical to DR-4 except half-site changed to AGAACA, a GRE half-site (SEQ ID NO:28) (AGCTTCAGAACACAGGAGAACAGAGAGCT; DNA, backbone not given here; double-stranded DNA response element with agct overhangs, cloned into reporter) .
Output: completely inactive
